- measured target: Mitogen-activated protein kinase 15 (Homo sapiens, UniProt Q8TD08)
- Sequence (Q8TD08 whole entry): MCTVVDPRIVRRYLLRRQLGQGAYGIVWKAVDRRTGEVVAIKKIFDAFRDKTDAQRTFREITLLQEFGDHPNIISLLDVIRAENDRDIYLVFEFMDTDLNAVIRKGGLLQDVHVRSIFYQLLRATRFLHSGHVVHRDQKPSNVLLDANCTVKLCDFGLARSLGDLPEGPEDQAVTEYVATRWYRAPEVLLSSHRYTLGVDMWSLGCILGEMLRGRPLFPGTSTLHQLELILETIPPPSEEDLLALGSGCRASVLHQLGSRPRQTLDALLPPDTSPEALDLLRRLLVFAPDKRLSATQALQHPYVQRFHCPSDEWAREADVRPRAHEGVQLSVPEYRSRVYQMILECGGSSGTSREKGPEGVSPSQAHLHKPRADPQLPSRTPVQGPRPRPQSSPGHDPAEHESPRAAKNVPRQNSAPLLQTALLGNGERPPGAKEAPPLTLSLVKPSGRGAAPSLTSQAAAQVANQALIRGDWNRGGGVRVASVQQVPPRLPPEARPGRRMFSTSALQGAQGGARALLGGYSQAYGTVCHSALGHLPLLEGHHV
- experiment: Binding affinity to Flag/His-tagged human MAPK15 assessed as dissociation constant incubated for 90 mins by TR-FRET assay
parameter: Kd (µM)
Respond with the bare value in µM.

If you can, please state the reported Kd value of Cc1cc(C)n2c1C=C1C=CC(CCC(=O)N3CCC(C(=O)Nc4ncc(SCc5ncc(C(C)(C)C)o5)s4)CC3)=[N+]1[B-]2(F)F . 0.34

* * *

Measured IC50 on Glycogen synthase kinase-3 alpha (Homo sapiens, UniProt P49840) follows.
Sequence (P49840 whole entry): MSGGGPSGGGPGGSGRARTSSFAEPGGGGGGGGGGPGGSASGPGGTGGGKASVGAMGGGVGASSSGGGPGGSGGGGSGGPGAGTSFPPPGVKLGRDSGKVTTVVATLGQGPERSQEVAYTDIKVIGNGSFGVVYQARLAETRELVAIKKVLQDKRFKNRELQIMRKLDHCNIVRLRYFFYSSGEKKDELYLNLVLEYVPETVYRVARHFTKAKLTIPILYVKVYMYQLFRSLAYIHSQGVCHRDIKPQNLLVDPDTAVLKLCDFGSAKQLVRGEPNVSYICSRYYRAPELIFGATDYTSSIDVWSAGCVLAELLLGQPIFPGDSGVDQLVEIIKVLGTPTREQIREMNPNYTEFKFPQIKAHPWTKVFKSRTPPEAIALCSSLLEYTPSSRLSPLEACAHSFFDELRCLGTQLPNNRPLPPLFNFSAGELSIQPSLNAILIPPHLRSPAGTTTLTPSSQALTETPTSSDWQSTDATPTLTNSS
Answer with a number only, understood to be in µM.

Would you please look over these solved cases?
COc1cc(N2CCOCC2)ccc1Nc1ncc(F)c(Nc2ccccc2NS(C)(=O)=O)n1	20.2
CC[C@H](Nc1nc(NCc2cnc(C)cc2C)c2ncn(C(C)C)c2n1)[C@@H](C)O	11.1
CN1CC[C@@H](c2c(O)cc(O)c3c(=O)cc(-c4ccccc4Cl)oc23)[C@@H]1CO	0.27

Now consider the entry below.
Which measured IC50 value corresponds to Cn1cc(C2=C(c3cn(CCCSC(=N)N)c4ccccc34)C(=O)NC2=O)c2ccccc21 [BISINDOLYLMALEIMIDE IX] ? 0.0007

* * *

- measured target: Mitogen-activated protein kinase 15 (Homo sapiens)
- experiment: Inhibition of Flag/His-tagged human MAPK15 incubated for 90 mins by TR-FRET assay
Items are presented alongside their recorded pIC50.
The quantity pIC50 is defined as the negative base-10 logarithm of the molar concentration.

// below: answered molecules
CC[C@H](Nc1nc(NCc2cnc(C)cc2C)c2ncn(C(C)C)c2n1)[C@@H](C)O	6.41
COc1cc(N2CCOCC2)ccc1Nc1ncc(F)c(Nc2ccccc2NS(C)(=O)=O)n1	5.55
CC(C)(C)c1cnc(CSc2cnc(NC(=O)C3CCN(CC(=O)NCCOCCOCCOCCNc4cccc5c4C(=O)N(C4CCC(=O)NC4=O)C5=O)CC3)s2)o1 (configuration not stated)	7.10
COc1cc(F)ccc1-c1ncnc(Nc2cccc(C[S@](C)(=N)=O)c2)n1	5.59

Please look up its pIC50: CN1CC[C@H](c2c(O)cc(O)c3c(=O)cc(-c4ccccc4Cl)oc23)[C@H](O)C1 6.79

Value lookup for pIC50; key = Cn1cc(C2=C(c3cn(CCCSC(=N)N)c4ccccc34)C(=O)NC2=O)c2ccccc21 [BISINDOLYLMALEIMIDE IX] 9.05

// lookup pIC50 for CN1CC[C@@H](c2c(O)cc(O)c3c(=O)cc(-c4ccccc4Cl)oc23)[C@@H]1CO 6.15

The values you see were collected from ChEMBL document CHEMBL6071206.
